# assay_details: Pharmacokinetics and biodistribution after 3% PS gel on outer surface of eyelid (Example 26)
# Format: in vivo, rabbit
# condition_label: male, New Zealand White, rabbit, topical; cornea, 2 h; rabbits, 3% PS gel on outer surface of upper eyelids; read-out: Amount in tissue, Mean ± SEM
experimental_readout: concentration at 2 h (nM)
Hi! Could you send only the number? It should be in nM, unit omitted.

// Input: CCOP(=O)(OCC)OCCCCOC(=O)CC1=C(C)/C(=C/c2ccc([S+](C)[O-])cc2)c2ccc(F)cc21 (centres unmarked) . Output its concentration at 2 h only. 1400

For the compound CC1=C(CC(=O)O)c2cc(F)ccc2/C1=C\c1ccc([S+](C)[O-])cc1 (centres unmarked) , give its measured concentration at 2 h value. 0
